Consider the following compounds and their measured normalized growth readings.
assay-notes: chemical genetic growth profiling, strain panel (AID 1159580);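 also: tested at 20 µM; growth read once vehicle control cultures reached saturation at 30 °C; 1 = growth at the plate median or of vehicle wells; lower values mean less growth of the strain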
test-context: S. cerevisiae deletion strains, growth OD, locus YOR136W, strain idh2, stronger effect = lower value
Screen size: about 5,500 compounds; about 2,000 (36%) were called active. Not shown: some 18% with an inconclusive outcome. Some of the results follow.
Just the number, please, no unit after it.

Task: Recorded normalized growth for `CCCc1c(OCCCCc2nn[nH]n2)ccc(C(C)=O)c1O` , please?
Result: 0.986

Task: Recorded normalized growth for `CC(=O)Oc1ccc(O)cc1` , please?
Result: 1.01

Task: Recorded normalized growth for CC(C)CCCC(C)[C@H]1CCC2C3CC[C@@H]4C[C@H](O)CC[C@]4(C)C3CC[C@@]21C (some centres not stated) , please?
Result: 0.994

Task: Recorded normalized growth for CC(CCC(=O)O)[C@H]1CCC2C3CC[C@@H]4CC(=O)CC[C@]4(C)C3C=C[C@@]21C (some centres not stated) , please?
Result: 1.03

Task: Recorded normalized growth for `CN(C)CCCN1c2ccccc2CCc2ccc(Cl)cc21` , please?
Result: 1.01

Task: Recorded normalized growth for `N[C@@H](CCC(=O)N[C@@H](CS)C(=O)NCC(=O)O)C(=O)O` , please?
Result: 0.993

Task: Recorded normalized growth for CC12CCC(O)CC1CCC1C2[C@H](O)CC2(C)C(C3=CC(=O)OC3)CCC12O (some centres not stated) , please?
Result: 1.01

Task: Recorded normalized growth for `CN(C)CCCN1c2ccccc2Sc2ccc(Cl)cc21` , please?
Result: 1.03

Task: Recorded normalized growth for CC(C)CCCC(C)[C@H]1CCC2C3CC=C4C[C@@H](O)CC[C@]4(C)C3CC[C@@]21C (some centres not stated) , please?
Result: 0.99

Task: Recorded normalized growth for `COc1cc(C(C)=O)cc(OC)c1O` , please?
Result: 1

Task: Recorded normalized growth for `O=C(O)c1cccnc1` , please?
Result: 1

Task: Recorded normalized growth for `CC(C)=CCc1c2c(c3occ(-c4ccc(O)cc4)c(=O)c3c1O)C=CC(C)(C)O2` , please?
Result: 0.996

Task: Recorded normalized growth for `CC(=O)c1cc(CC=C(C)C)c(O)c(CC=C(C)C)c1` , please?
Result: 0.973

Task: Recorded normalized growth for `Oc1c(Cl)cc(Cl)cc1Sc1cc(Cl)cc(Cl)c1O` , please?
Result: 0.978

Task: Recorded normalized growth for `C[n+]1ccccc1/C=N/O` , please?
Result: 0.993

Task: Recorded normalized growth for CC(C)CCCC(C)C1CCC2C3C[C@@H](O)[C@@]4(O)C[C@@H](O)CC[C@]4(C)C3CC[C@]12C (some centres not stated) , please?
Result: 1.02

Task: Recorded normalized growth for CC(C)CCCC(C)[C@H]1CCC2C3CC=C4CC(=O)CC[C@]4(C)C3CC[C@@]21C (some centres not stated) , please?
Result: 0.993

* * *

assay-notes: chemical genetic growth profiling, strain panel (AID 1159580);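 also: tested at 20 µM; growth read once vehicle control cultures reached saturation at 30 °C; 1 = growth at the plate median or of vehicle wells; lower values mean less growth of the strain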
test-context: S. cerevisiae deletion strains, growth OD, locus YBR009C, strain hhf1, stronger effect = lower value
In all, about 5,500 compounds went through this assay and about 2,000 (36%) were called active. Another 18% or so got no clear call; they are omitted. Some of the results follow.
quantity-measured: normalized growth
Just the number, please, no unit after it.

[
  {
    "compound": "Cc1nc(N)cc(C[n+]2csc(CCO)c2C)n1",
    "normalized growth": 0.979
  }
]

Task: Recorded normalized growth for `COc1ccc([C@@H]2CC(=O)c3c(O)cc(O[C@@H]4O[C@H](CO[C@H]5O[C@@H](C)[C@H](O)[C@@H](O)[C@H]5O)[C@@H](O)[C@H](O)[C@H]4O)cc3O2)cc1O` , please?
Result: 0.937

Task: Recorded normalized growth for CC(=O)O[C@@H]1CC2C(C)(C)C(=O)C=C[C@]2(C)C2CC[C@]3(C)C(=CC(=O)O[C@H]3c3ccoc3)[C@@]21C (stereo partly specified) , please?
Result: 1.01

Task: Recorded normalized growth for CC(C)=CCCC(C)[C@@H]1CC[C@]2(C)C3=C(CC[C@@]12C)C1(C)CC[C@H](O)C(C)(C)C1CC3 (stereo partly specified) , please?
Result: 1.01

Task: Recorded normalized growth for `Nc1ccc(S(=O)(=O)NC(=O)c2ccccc2)cc1` , please?
Result: 0.959

Task: Recorded normalized growth for `CC(C)=CCc1c2c(c3occ(-c4ccc(O)c(O)c4)c(=O)c3c1O)C=CC(C)(C)O2` , please?
Result: 0.931
